molecular target: UniProt Q96P20; assay: Human whole blood IL-1β release assay (LPS, nigericin, AlphaLisa); format: cell-based; set-up: Plate out 80 μl of whole blood containing 1 μg/ml of LPS; from tissue; host or cells: human whole blood from healthy donors, LPS-primed, nigericin-stimulated; conditions: 1 μg/ml LPS, 3 h compound, 10 μM nigericin 1 hr, IL-1β in supernatant, read-out: Human whole blood IB-1β Assay IC50
Sequence (Q96P20 whole entry): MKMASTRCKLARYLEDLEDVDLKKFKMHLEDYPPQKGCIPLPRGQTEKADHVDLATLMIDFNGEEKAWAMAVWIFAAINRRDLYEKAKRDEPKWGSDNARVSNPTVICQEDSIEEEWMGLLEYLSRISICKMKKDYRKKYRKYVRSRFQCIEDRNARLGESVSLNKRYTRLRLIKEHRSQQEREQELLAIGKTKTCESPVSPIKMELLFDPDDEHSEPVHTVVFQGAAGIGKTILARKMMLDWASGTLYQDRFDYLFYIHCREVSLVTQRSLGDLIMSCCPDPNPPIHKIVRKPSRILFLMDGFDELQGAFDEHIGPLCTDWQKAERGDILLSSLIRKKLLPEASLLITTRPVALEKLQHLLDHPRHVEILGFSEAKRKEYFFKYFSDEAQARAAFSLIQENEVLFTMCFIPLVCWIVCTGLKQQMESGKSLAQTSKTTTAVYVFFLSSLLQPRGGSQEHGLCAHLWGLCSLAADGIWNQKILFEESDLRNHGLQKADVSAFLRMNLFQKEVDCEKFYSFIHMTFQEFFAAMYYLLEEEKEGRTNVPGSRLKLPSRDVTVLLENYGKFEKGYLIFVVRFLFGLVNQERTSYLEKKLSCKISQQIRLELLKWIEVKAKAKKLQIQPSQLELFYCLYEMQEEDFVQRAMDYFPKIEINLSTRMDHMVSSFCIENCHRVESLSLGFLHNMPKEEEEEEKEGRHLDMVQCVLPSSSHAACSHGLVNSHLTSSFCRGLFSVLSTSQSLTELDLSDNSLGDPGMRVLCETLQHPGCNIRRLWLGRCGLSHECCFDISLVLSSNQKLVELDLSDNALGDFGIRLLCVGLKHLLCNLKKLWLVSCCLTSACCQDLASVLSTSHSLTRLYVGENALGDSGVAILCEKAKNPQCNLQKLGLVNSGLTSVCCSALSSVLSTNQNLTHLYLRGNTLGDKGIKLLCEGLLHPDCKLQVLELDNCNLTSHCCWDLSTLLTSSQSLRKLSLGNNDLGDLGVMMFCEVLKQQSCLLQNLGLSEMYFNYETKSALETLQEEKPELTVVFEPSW
pIC50: −log10 of the molar value.
assayReadout: pIC50

A. CCN1CCC[C@@H](Nc2nnc(-c3ccc(C(F)(F)F)cc3O)c3occc23)C1
B. CCN1CCCC(Nc2nnc(-c3ccc(C(F)(F)F)cc3O)c3ccsc23)C1 (racemic)
C. CCN1CCC[C@@H](Nc2nnc(-c3ccc4c(c3O)CC4)c3c2cnn3C)C1
D. CCN1CCCC(Nc2nnc(-c3ccc(C(F)(F)F)cc3)c3sccc23)C1 (racemic)
Challenge: Order these molecules (above) by their pIC50, from the smallest value upward. Rank them, then answer with their labels in that order.
Response given: A, D, B, C
(A: 9.23, D: 9.48, B: 10.06, C: 10.48)
